Tested on: human leukocytes
assaySummary: Cytotoxic activity against human leukocytes
appliedConditions: 1 mM, 3 h incubation
Please go through the items and note down their Death of leukocytes in the presence of 1 mM of compound.

stdin: Lab note: need Death of leukocytes in the presence of 1 mM of compound for C=CC1=C(C)c2cc3[n-]c(cc4nc(cc5[n-]c(cc1n2)c(C)c5CCC(=O)N[C@@H](CCCNC(=N)N)C(=O)OC)C(CCC(=O)N[C@@H](CCCNC(=N)N)C(=O)OC)=C4C)c(C)c3C=C.[Cl-].[Fe+3] on human leukocytes, anyone have it?
stdout: 8.0 ± 0.8%

stdin: Lab note: need Death of leukocytes in the presence of 1 mM of compound for C=CC1=C(C)c2cc3[n-]c(cc4nc(cc5[n-]c(cc1n2)c(C)c5CCC(=O)N[C@@H](CO)C(=O)OC)C(CCC(=O)N[C@@H](CO)C(=O)OC)=C4C)c(C)c3C=C.[Cl-].[Fe+3] on human leukocytes, anyone have it?
stdout: 6.1 ± 0.3%

stdin: Lab note: need Death of leukocytes in the presence of 1 mM of compound for C=CC1=C(C)c2cc3[n-]c(cc4nc(cc5[n-]c(cc1n2)c(C)c5CCC(=O)NCCc1c[nH]cn1)C(CCC(=O)NCCc1c[nH]cn1)=C4C)c(C)c3C=C.[Cl-].[Fe+3] on human leukocytes, anyone have it?
stdout: 13 ± 1%

stdin: Lab note: need Death of leukocytes in the presence of 1 mM of compound for C=CC1=C(C)c2cc3[n-]c(cc4nc(cc5[n-]c(cc1n2)c(C)c5CCC(=O)NCCC(=O)N[C@@H](Cc1c[nH]cn1)C(=O)O)C(CCC(=O)NCCC(=O)N[C@@H](Cc1c[nH]cn1)C(=O)O)=C4C)c(C)c3C=C.[Cl-].[Fe+3] on human leukocytes, anyone have it?
stdout: 4.9 ± 0.3%

stdin: Lab note: need Death of leukocytes in the presence of 1 mM of compound for C=CC1=C(C)c2cc3[n-]c(cc4nc(cc5[n-]c(cc1n2)c(C)c5CCC(=O)NCC(=O)OC)C(CCC(=O)NCC(=O)OC)=C4C)c(C)c3C=C.[Cl-].[Fe+3] on human leukocytes, anyone have it?
stdout: 13 ± 1%
